Here, each record is paired with measured TGI data.
Tested on: CAKI-1 renal
Test description: NCI tumour cell line growth inhibition, 48 h

1. Cc1cc(/N=C/c2ccc(F)cc2)n(-c2ccccc2)n1 = > 100 µM

Now turn to the next molecule.
### Prompt Would you mind telling me what TGI value was observed for CC(C)=CC1CC(=[N+]=[N-])C(=O)C1(C)C (stereo unspecified) ?
### Response > 100 µM

---

Tested on: RPMI-8226 leukemia
Test description: NCI tumour cell line growth inhibition, 48 h
Below, each of the compounds is paired with its reported TGI value.

Study these solved cases before continuing.
1) O=c1nc(N2CCNCC2)oc2cc(Cl)oc(=O)c12 = 5.62 µM
2) Cc1cc(C(F)(F)F)cc(-n2nc(NS(=O)(=O)c3cc(C)c(Cl)cc3S)nc2N)n1 = > 100 µM
3) O=[N+]([O-])c1ccc(CI)cc1 = 5.68 µM

### Prompt Entry under review: Nc1ccn(C2OC(C(O)CO)C(O)C2O)c(=O)n1 (configuration not stated) . Reported TGI?
### Response > 100 µM

### Prompt I am curious: what TGI value has been reported for COC1=C(Br)[C@H](O)[C@@]2(C=C1Br)CC(C(=O)NCCCOc1c(Br)cc(C(O)CNC(C)=O)cc1Br)=NO2 (some centres not stated) ?
### Response > 10 µM

### Prompt Given COC1(OC)CCCc2c1no[n+]2[O-] , state its recorded TGI.
### Response > 100 µM

### Prompt Need TGI, item CN(C)CCSc1cc(-c2ccccc2)c2ccccc2n1
### Response > 100 µM

---

Tested on: MDA-MB-435
Test description: NCI tumour cell line growth inhibition, 48 h
Would you please tag the item class 1 when its TGI is 20 µM or above, and class 0 when it is below?

Here's what some known entries look like.
1. CCCCCCCN=C(N)c1ccc(N2CCN(c3ccc(C(N)=NCCCCCCC)cc3)CC2)cc1 = class 0
2. O=c1oc2c/c(=C\c3ccc([N+](=O)[O-])cc3)c(=O)c3cccc1c3-2 = class 1
3. COc1ccc(-c2nc3ncccn3c2-c2ccc(SC)cc2)cc1 = class 0
4. CCOC(=O)/C=C(/C(=O)OCC)n1cnc2c(=O)[nH]c(NC(C)=O)nc21 = class 1
5. CCOC(=O)Cc1ccc(Nc2nc3ccccc3nc2C(=O)OCC)cc1 = class 1

### Prompt Textbook exercise: given the entry CC1=C(/C=C/C(C)=C/C=C/C(C)=C/C(=O)OC2CC(n3cc(F)c(=O)[nH]c3=O)OC2CO)C(C)(C)CCC1 (stereo not drawn) , state whether its TGI is greater than or equal to 20 µM.
### Response class 1

### Prompt Quick check, TGI >= 20 µM? C#Cc1nc(Nc2cc(C)[nH]n2)c2ccccc2n1
### Response class 0

### Prompt Can CCOC(=O)c1nc2cc(F)c(N3CCOCC3)cc2[nH]c1=O be said to have TGI at or above 20 µM?
### Response class 1

### Prompt Decide: is the reported value of TGI for O=C(NNc1ccccc1)C(=O)NNc1ccccc1 equal to or greater than 20 µM?
### Response class 1

### Prompt TGI >= 20 µM for COc1ccc(/C=C2\c3cc(OC)c(OC)cc3CCN2C(=O)c2ccccc2)cc1OC ?
### Response class 1

---

System: RXF 393 renal
Test description: NCI tumour cell line growth inhibition, 48 h
Reported TGI values are given for each entry in this list.

Examples with their reported TGI follow.
1. O=C(CC(C(=O)c1ccsc1)c1ccccc1)c1ccccc1 (centres undefined) = > 100 µM
2. C[C@@]12CCC[C@@](C)(C(=O)O)C1CC[C@]13CC(=O)[C@](CO)(C1)[C@@H](O)CC32 (some centres undefined) = > 100 µM
3. COC1=C(Br)[C@H](O)[C@@]2(C=C1Br)CC(C(=O)NCCCOc1c(Br)cc(C(O)CNC(C)=O)cc1Br)=NO2 (some centres undefined) = > 10 µM
4. Cc1ccc(S(=O)OCc2c(C)c(C)c(COS(=O)c3ccc(C)cc3)c(C)c2C)cc1 (centres undefined) = > 100 µM
5. BrCc1cccc(C[P+](c2ccccc2)(c2ccccc2)c2ccccc2)c1 = > 100 µM

### Prompt What does the record list as TGI for CN(C)CCC(=O)C(=Cc1ccc(O)cc1)C(=O)CCN(C)C ?
### Response > 100 µM

### Prompt Request the reported TGI associated with COC(=O)C(C(=O)Cc1ccccc1[N+](=O)[O-])C(=O)OC
### Response > 100 µM

### Prompt Could you share which TGI value was measured for O=[N+]([O-])c1cccc2ccc(N/N=C/c3ccccc3O)nc12 ?
### Response > 100 µM

### Prompt Quick check: TGI of Cn1c(=O)c(Oc2ccc(F)cc2)cc2cnc(NC3CCOCC3)nc21 ?
### Response > 25 µM

---

Test system: NCI-H460 lung
Test description: NCI tumour cell line growth inhibition, 48 h
Measured TGI values are reported for all entries that follow.

### Prompt Item under review: COc1ccc(-c2nnc(N3CCN(C(=O)CN4CCN(c5ccccc5)CC4)CC3)nc2-c2ccc(OC)cc2)cc1 . Reported TGI?
### Response > 100 µM

### Prompt TGI for COc1ccc(C2=C3SC=c4ccccc4=C3ON=C2c2ccccc2)cc1 ?
### Response > 100 µM

### Prompt Entry under review: Cc1cc2c(cc1C(=O)c1ccc(N)cc1)OCO2 . Reported TGI?
### Response > 100 µM

---

Recorded TGI for the following compounds
Test system: SK-MEL-2 melanoma
Test description: NCI tumour cell line growth inhibition, 48 h

### Prompt Would you mind telling me what TGI value was observed for COc1ccc(/C(Cl)=C(\C=O)c2ccc(OC)cc2)cc1 ?
### Response > 100 µM

### Prompt Endpoint output: TGI of COc1ccc(-c2nc3ncccn3c2-c2ccc(SC)cc2)cc1 . Value?
### Response > 100 µM

### Prompt Report TGI for CC1(C)OC2C(O)C(CO)OC2(C(F)F)O1 (stereo not given) please.
### Response > 100 µM

### Prompt Record request: TGI value, item CS/C(=C(\S)c1ccccc1)c1ccccc1
### Response > 100 µM

### Prompt What value of TGI has been recorded for this entry: Nc1ccn(C2OC(CO)C(O)C2O)c(=O)n1 (stereo not given)
### Response > 500 µM

### Prompt What value of measured TGI is listed for CCN(CC)CCSc1c2ccccc2nc2c(OC)ccc(OC)c12 ?
### Response > 23 µM

### Prompt Any idea what TGI was measured for Nc1c(C(=O)c2ccccc2)cnn1-c1ccc(F)cc1 ?
### Response > 25 µM

### Prompt Return reported TGI; argument: Cc1ccc(NC(=O)CCc2nnc(N)o2)cc1
### Response > 100 µM

### Prompt Looking for the measured TGI of Cn1c2ccccc2c(=O)c2cccc(C(=O)NC(CS)C(=O)O)c21 (stereo not given) , can you help?
### Response > 100 µM

### Prompt Entry O=C(Cn1c(-c2ccccc2)cc2ccccc21)N1CCCC1 : reported TGI = ?
### Response > 100 µM

---

System: HCT-15 colon
Test description: NCI tumour cell line growth inhibition, 48 h
Readings of TGI for the listed molecules

For orientation, consider the following solved cases.
1. CN(C)C(=O)/C=C/c1c[nH]c(=O)[nH]c1=O = > 500 µM
2. COc1ccc(-c2nc3ncccn3c2-c2ccc(SC)cc2)cc1 = > 100 µM
3. O=C1NI(C#Cc2ccccc2)c2ccccc21 = > 100 µM
4. Cc1cc(/N=C/c2ccc(F)cc2)n(-c2ccccc2)n1 = > 100 µM

### Prompt Item COc1ccc(-c2nsc3c2NC(=O)CC3c2cccc(OC)c2)cc1 (configuration not stated) has what recorded TGI?
### Response > 100 µM

### Prompt Endpoint output: TGI of CC(C)C(C/C=C1\CC(CO)(COC(=O)C(C)(C)C)OC1=O)C(C)C (configuration not stated) . Value?
### Response 29.8 µM

### Prompt I'd like to know its TGI. The molecule in question is COC(=O)C1=CN(CC2=CC(=O)C(C)=CC2=O)C=C(C(=O)OC)C1c1cccc(OC)c1
### Response 39 µM

---

Test system: EKVX NSCLC
Test description: NCI tumour cell line growth inhibition, 48 h; in the data active means GI50 below about 0.43 µM; inactive means the rest
Mark one answer only. Choices: yes = active, no = inactive

Known results for compounds:
1) COc1ccccc1Nc1ncc(-c2ccccc2)o1 = no
2) CS(=O)(=O)Nc1cc(-c2ccc3ncnc(Nc4c(Cl)ccc5c4OCO5)c3c2)cnc1Cl = yes
3) C/C(=N\NC(=S)N1CCCCCC1)c1ccccn1 = yes
4) Cn1c(Nc2ccc(C(F)(F)F)cc2)nc2cc(Oc3ccnc(-c4ncc(C(F)(F)F)[nH]4)c3)ccc21 = no

Attention now turns to another entry.
### Prompt For COc1ccc(/C(=C\C=C(C#N)C#N)Sc2nc3ccccc3s2)cc1 , which call appears in the assay record?
### Response no
